Each item that follows carries a reported zone of inhibition at 100 µg/mL.
System: Pseudomonas aeruginosa
Assay: Antibacterial activity against Pseudomonas aeruginosa at 100 ug/ml after 24 hr by disk diffusion method
Format: functional
Settings: read-out: DIZ
Write the number in mm without appending the unit.

As a guide, the following entries are already answered.
[[record]]
molecular_string = "CCN(CC)CN1C(=O)N(c2ccccc2)C(=O)C1(c1ccccc1)c1ccccc1"
system_under_test = "Pseudomonas aeruginosa"
unit_string = "mm"
assay_value = 9

[[record]]
molecular_string = "O=C1N(c2ccccc2)C(=O)C(c2ccccc2)(c2ccccc2)N1Cn1nnc2ccccc21"
system_under_test = "Pseudomonas aeruginosa"
unit_string = "mm"
assay_value = 10

[[record]]
molecular_string = "CCN(CC)CN1C(=O)NC(c2ccccc2)(c2ccccc2)C1=O"
system_under_test = "Pseudomonas aeruginosa"
unit_string = "mm"
assay_value = 9

[[record]]
molecular_string = "O=C1NC(c2ccccc2)(c2ccccc2)C(=O)N1CN1C(=O)c2ccccc2C1=O"
system_under_test = "Pseudomonas aeruginosa"
unit_string = "mm"
assay_value = 8


// switching to the query molecule
# input Short answer please: zone of inhibition at 100 µg/mL, Pseudomonas aeruginosa, entry `O=C1NC(c2ccccc2)(c2ccccc2)C(=O)N1Cn1cnc2ccccc21`
# output 11

---

Tested on: Candida albicans
Assay: Antifungal activity against Candida albicans at 100 ug/ml after 48 hr by disk diffusion method
Assay type: functional
Conditions: read-out: DIZ
Could you label it satisfied if measured zone of inhibition at 100 µg/mL is 20 mm or higher, and not satisfied otherwise?

Solved entries:
[[record]]
molecular_string = "O=C1NC(c2ccccc2)(c2ccccc2)C(=O)N1Cn1ccnc1"
classification = "satisfied"

[[record]]
molecular_string = "O=C1N(c2ccccc2)C(=O)C(c2ccccc2)(c2ccccc2)N1Cn1cnc2ccccc21"
classification = "satisfied"

[[record]]
molecular_string = "O=C1NC(c2ccccc2)(c2ccccc2)C(=O)N1Cn1nnc2ccccc21"
classification = "not satisfied"

[[record]]
molecular_string = "CN(C)CN1C(=O)N(c2ccccc2)C(=O)C1(c1ccccc1)c1ccccc1"
classification = "not satisfied"

[[record]]
molecular_string = "COC1=CC(=O)C[C@@H](C)[C@]12Oc1c(Cl)c(OC)cc(OC)c1C2=O"
classification = "satisfied"

[[record]]
molecular_string = "O=C1N(c2ccccc2)C(=O)C(c2ccccc2)(c2ccccc2)N1CNc1nccs1"
classification = "not satisfied"

[[record]]
molecular_string = "O=C1NC(c2ccccc2)(c2ccccc2)C(=O)N1CN1C(=O)c2ccccc2C1=O"
classification = "not satisfied"

[[record]]
molecular_string = "CN(C)CN1C(=O)NC(c2ccccc2)(c2ccccc2)C1=O"
classification = "not satisfied"

[[record]]
molecular_string = "CCN(CC)CN1C(=O)N(c2ccccc2)C(=O)C1(c1ccccc1)c1ccccc1"
classification = "not satisfied"


Alright, here's another compound for you.
# input Hi team, for `O=C1NC(c2ccccc2)(c2ccccc2)C(=O)N1CNc1nc2ccccc2s1` , is the recorded zone of inhibition at 100 µg/mL at or above 20 mm?
# output not satisfied

---

Each item that follows carries a reported zone of inhibition at 100 µg/mL.
System: Candida albicans
Experiment: Antifungal activity against Candida albicans at 100 ug/ml after 48 hr by disk diffusion method
Format: functional
Conditions: read-out: DIZ
Write the number in mm without appending the unit.

[[record]]
molecular_string = "CCN(CC)CN1C(=O)NC(c2ccccc2)(c2ccccc2)C1=O"
assay_endpoint = "zone of inhibition at 100 µg/mL"
assay_value = 10

[[record]]
molecular_string = "O=C1N(c2ccccc2)C(=O)C(c2ccccc2)(c2ccccc2)N1CN1CCOCC1"
assay_endpoint = "zone of inhibition at 100 µg/mL"
assay_value = 12

[[record]]
molecular_string = "O=C1NC(c2ccccc2)(c2ccccc2)C(=O)N1CNc1nccs1"
assay_endpoint = "zone of inhibition at 100 µg/mL"
assay_value = 12


# input Quick one: zone of inhibition at 100 µg/mL for `O=C1NC(c2ccccc2)(c2ccccc2)C(=O)N1CN1CCOCC1` ?
# output 12

# input Now the same for `O=C1c2ccccc2C(=O)N1CN1C(=O)N(c2ccccc2)C(=O)C1(c1ccccc1)c1ccccc1`
# output 16

# input Now the same for `O=C1N(c2ccccc2)C(=O)C(c2ccccc2)(c2ccccc2)N1CNc1nc2ccccc2s1`
# output 15
